assay: Example 3 Part A: oral suspension administered at 4 p.m. vs 8 p.m., plasma pharmacokinetics; type: in vivo, human; conditions: human, in vivo; oral suspension 45 mg and 60 mg, 4 p.m. and 8 p.m., range; read-out: Mean t1/2
readout-label: half-life

[
  {
    "smiles-structure": "COC[C@@]1(O)CC[C@@]2(C)[C@@H](CC[C@@H]3[C@@H]2CC[C@]2(C)[C@@H](C(=O)Cn4ccnc4)CC[C@@H]32)C1",
    "measured-value": "11.1 to 12.6 h"
  }
]

###

assay: Example 3 Part C: tablet single ascending doses, morning fasted vs 8 p.m., plasma pharmacokinetics; assay type: in vivo, human; details: human, in vivo, 60 mg, 8 p.m. administration (60 mg), 2 h after dinner, N = 12; Mean (SD)
readout-label: half-life (h)

[
  {
    "compound": "COC[C@@]1(O)CC[C@@]2(C)[C@@H](CC[C@@H]3[C@@H]2CC[C@]2(C)[C@@H](C(=O)Cn4ccnc4)CC[C@@H]32)C1 [Compound 1]",
    "measured-value": 9.6
  }
]

###

assay: Example 3 Part A: oral suspension administered at 4 p.m. vs 8 p.m., plasma pharmacokinetics; type: in vivo, human; settings: human, in vivo, po, 45 mg, Cmax
readout-label: Cmax (ng/mL)

[
  {
    "compound": "COC[C@@]1(O)CC[C@@]2(C)[C@@H](CC[C@@H]3[C@@H]2CC[C@]2(C)[C@@H](C(=O)Cn4ccnc4)CC[C@@H]32)C1 [Compound 1]",
    "measured-value": 207
  }
]

###

Test: Example 3 Part C: tablet single ascending doses, morning fasted vs 8 p.m., plasma pharmacokinetics
Format: in vivo, human
Conditions: human, in vivo, 80 mg, Cmax
Protocol: Patients with severe major depressive disorder (MDD) aged 18 to 65 years were treated with an oral suspension or tablet of Compound 1 to study the effect of food and time of administration on the pharmacokinetics, as well as the safety and tolerability of these formulations. Part C is a randomized, participant- and Investigator-blinded, Sponsor-unblinded, placebo-controlled, parallel-group design to evaluate the pharmacokinetics and safety of single ascending doses of a Compound 1 citrate tablet. […]
readout-label: Cmax (ng/mL)

[
  {
    "smiles-structure": "COC[C@@]1(O)CC[C@@]2(C)[C@@H](CC[C@@H]3[C@@H]2CC[C@]2(C)[C@@H](C(=O)Cn4ccnc4)CC[C@@H]32)C1",
    "unit-string": "ng/mL",
    "measured-value": 546
  }
]

###

Assay: Example 3 Part C: tablet single ascending doses, morning fasted vs 8 p.m., plasma pharmacokinetics
Type: in vivo, human
Settings: human, in vivo, 40 mg, 9 a.m. administration (fasted), N = 13; Mean (SD)
Description: Patients with severe major depressive disorder (MDD) aged 18 to 65 years were treated with an oral suspension or tablet of Compound 1 to study the effect of food and time of administration on the pharmacokinetics, as well as the safety and tolerability of these formulations. Part C is a randomized, participant- and Investigator-blinded, Sponsor-unblinded, placebo-controlled, parallel-group design to evaluate the pharmacokinetics and safety of single ascending doses of a Compound 1 citrate tablet. […]
readout-label: half-life (h)

[
  {
    "smiles-structure": "COC[C@@]1(O)CC[C@@]2(C)[C@@H](CC[C@@H]3[C@@H]2CC[C@]2(C)[C@@H](C(=O)Cn4ccnc4)CC[C@@H]32)C1",
    "measured-value": 11.9
  }
]
